System: Plasmodium falciparum
Test: Antimalarial activity against Plasmodium falciparum 3D7 CQ-sensitive assessed as inhibition of growth by liquid scintillation counting method
Format: functional, organism-based

compound: NC1CCc2cccc(-c3ccccc3)c2CC1=O (stereo unspecified)
IC50, µM: 11.2

====

Experiment: Half life in CD-1 mouse at 3 mg/kg, iv measured after 8 hrs hrs by UHPLC analysis
Assay type: ADME, organism-based
Settings: in vivo

molecule: NC1CCc2cccc(-c3ccccc3)c2CC1=O (stereo unspecified)
half-life: 2.2 h

====

System: Plasmodium falciparum
Assay: Antimalarial activity against multidrug resistant Plasmodium falciparum W2 assessed as reduction in proliferation incubated for 24 hrs
Type: functional, organism-based
Conditions: W2, 24 h
pIC50: −log10 of the molar value.

compound: CO[C@H]1[C@H](C2(C)O[C@@H]2CC=C(C)C)[C@]2(CC[C@H]1OC(=O)NC(=O)CCl)CO2 (single isomer, unassigned)
assayedSystem: Plasmodium falciparum
pIC50: 8.52

compound: CO[C@]12C(=O)CC[C@@]1(CO)[C@H]2[C@@]1(C)O[C@@H]1CC=C(C)C
assayedSystem: Plasmodium falciparum
pIC50: 6.57

====

Tested on: Plasmodium falciparum
Experiment: Antimalarial activity against Plasmodium falciparum 3D7 CQ-sensitive incubated for 48 hrs by [3H]hypoxanthine incorporation assay based MicroBeta plate reader
pIC50: −log10 of the molar value.
measurementKind: pIC50

smilesCode: Cc1nc(-c2ccccn2)nc(NCCc2ccccc2)c1Cl
valueReported: 5.80

====

As shown below, each of these compounds has a reported pIC50 value.
Tested on: Plasmodium falciparum
Assay: Antimalarial activity against Plasmodium falciparum NF54 wild-type assessed as reduction in proliferation incubated for 24 hrs by [3H]hypoxanthine incorporation assay
Type: functional, organism-based
pIC50: −log10 of the molar value.

compound: CO[C@]12C(=O)CC[C@@]1(CO)[C@H]2[C@@]1(C)O[C@@H]1CC=C(C)C
pIC50: 6.80

compound: CO[C@H]1[C@H](C2(C)O[C@@H]2CC=C(C)C)[C@]2(CC[C@H]1OC(=O)NC(=O)CCl)CO2 (single isomer, unassigned)
pIC50: 8.70

====

Assay: Clearance in CD-1 mouse at 3 mg/kg, iv measured after 8 hrs hrs by UHPLC analysis
Assay type: ADME, organism-based
Settings: in vivo

molecule: NC1CCc2cccc(-c3ccccc3)c2CC1=O (stereo unspecified)
unitString: mL/min/kg
clearance: 43
